# STUDY TARGET: snRNP A (Homo sapiens)
# Sequence (P09012 whole entry, the tested form may be a part): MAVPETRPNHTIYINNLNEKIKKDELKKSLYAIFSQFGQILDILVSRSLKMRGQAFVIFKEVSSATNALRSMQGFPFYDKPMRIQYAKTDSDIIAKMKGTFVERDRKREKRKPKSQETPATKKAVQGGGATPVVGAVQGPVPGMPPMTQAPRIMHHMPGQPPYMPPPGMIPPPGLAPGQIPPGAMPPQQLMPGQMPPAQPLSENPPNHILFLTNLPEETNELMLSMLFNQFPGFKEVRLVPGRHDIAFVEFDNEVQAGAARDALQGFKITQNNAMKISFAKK
# ASSAY NAME: protein domain microarray probed with biotinylated miRNA; Domain array: 20 mM Tris-HCl pH 7.4, 200 mM KCl, 0.2 mM EDTA, 0.05% NP40, 2 ug/ul heparin, overnight 4 C. ORF array: PBS pH 7.0 with RNase inhibitor, 100 ng RNA; high values mean tight binding
# EXPERIMENTAL CONDITIONS: ssRNA
OBSERVED PROPERTY: binding signal (fluorescence intensity)
Unit fluorescence intensity implied. Number only.

Consider the reported binding signal for these sequences:
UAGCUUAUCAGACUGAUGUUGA = 25.3
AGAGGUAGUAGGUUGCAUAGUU = 342
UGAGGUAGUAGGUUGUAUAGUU = 28

Req: Find the measured binding signal: item `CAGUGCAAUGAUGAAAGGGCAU` , target or system snRNP A (Homo sapiens).
Resp: 224

Req: Find the measured binding signal: item `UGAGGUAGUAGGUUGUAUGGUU` , target or system snRNP A (Homo sapiens).
Resp: 372

Req: Find the measured binding signal: item `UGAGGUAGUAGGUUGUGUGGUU` , target or system snRNP A (Homo sapiens).
Resp: 237

All figures here come from paper PMC11574364.
